Target: T1, mouse GIP receptor (mouse) (UniProt Q0P543)
T1 sequence (looked up): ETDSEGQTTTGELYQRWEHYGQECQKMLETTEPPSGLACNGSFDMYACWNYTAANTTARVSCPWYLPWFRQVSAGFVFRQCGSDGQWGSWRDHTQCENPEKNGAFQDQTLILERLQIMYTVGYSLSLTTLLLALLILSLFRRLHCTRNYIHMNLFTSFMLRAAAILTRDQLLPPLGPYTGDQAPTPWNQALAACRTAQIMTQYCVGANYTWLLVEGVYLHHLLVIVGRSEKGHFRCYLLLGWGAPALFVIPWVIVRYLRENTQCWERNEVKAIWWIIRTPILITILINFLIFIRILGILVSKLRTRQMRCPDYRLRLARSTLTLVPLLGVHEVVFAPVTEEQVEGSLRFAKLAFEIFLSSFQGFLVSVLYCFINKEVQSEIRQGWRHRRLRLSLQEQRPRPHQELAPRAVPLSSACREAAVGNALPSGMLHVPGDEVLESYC
Test: cell-based or functional assay
Result type: cAMP EC50 (nM)
Could you give me the number in nM? Just the number is fine.

These solved cases illustrate the format of a correct answer.
Binder: IP321 (Fc fusion) YSEGTFISDYSIAMDKIHQQDFVNWLLAGGAAAGGSGSTASSGSGSATGGGGAATHTCPPC
cAMP EC50, nM: 0.017
//
Binder: IP226 (Fc fusion) YSEGTFTSDVSKLLERQAIDEFIAWLLKGGAAAGGSGSTASSGSGSATGGGGAATHTCPPCPAPEF
cAMP EC50, nM: 7.5

Attention now turns to another entry.
## Task Please give the measured cAMP EC50 for this binder: IP392 (Fc fusion) YSEGTFISDYSIAMDKIHQQDFVNWLLAQKGAANDWKHNITQGGGGSGGGGSGGGGSGGGGSGGGGSGGGGSACPPC
## Result 0.031
